# MEASUREMENT DESCRIPTION: FBMN analysis of short peptides in small intestine contents and serum after oral DHG
# MEASUREMENT CONTEXT: small intestine contents, 120 min after oral DHG, C57 mice; FBMN feature intensity, peptides smaller than 690 Da
Peptide text beside a SMILES is read from it.
READOUT KIND: Peptide signal (feature intensity) in the small intestine, 120 min

Examples from the recorded data:
> print(dat)
                                   compound  observed.result
1  CC[C@H](C)[C@H](N)C(=O)N[C@@H](CC(C)C)C(=O)O [Ile-Leu] (H-Ile-Leu-OH)         0.00E+00
2  N[C@@H](CC(=O)O)C(=O)N[C@@H](Cc1ccccc1)C(=O)O [Asp-Phe] (H-Asp-Phe-OH)         1.22E+08
3  CC(C)C[C@H](NC(=O)[C@@H](N)CC(=O)O)C(=O)O [Asp-Leu] (H-Asp-Leu-OH)         7.39E+06
4  NC(Cc1ccccc1)C(=O)N1CCCC1C(=O)O (stereo not drawn) [Phe-Pro] (H-Phe-Pro-OH; configuration not given here)         1.63E+06
5        CC(C)[C@@H]1NC(=O)[C@@H]2CCCN2C1=O         6.03E+05
6               CC(C)C[C@H](NC(=O)CN)C(=O)O         0.00E+00

a = O=C1CCC(C(=O)NC(Cc2ccccc2)C(=O)O)N1 (stereo not shown)
b = CC[C@H](C)[C@H](N)C(=O)NCC(=O)N[C@H](C(=O)O)[C@@H](C)CC [Ile-Gly-Ile] (H-Ile-Gly-Ile-OH)
Which item exceeds the other in Peptide signal (feature intensity) in the small intestine, 120 min, a or b ? To answer, give the label that identifies your chosen option. b
(b: 1.40E+06, a: 0.00E+00)
